# assay-notes: Clearance in Sprague-Dawley rat at 10 mg/kg, iv measured for 12 hrs by LC-MS/MS analysis
# Format: ADME, organism-based
# cond: in vivo
measurement-kind: clearance (mL/min)

{"structure-notation": "C=C[C@]1(C)C[C@@H](O)[C@]2(C)[C@H](C)CC[C@]3(C/C(=C\\c4ccc(C(=O)NC5CCCCC5)cc4)C(=O)[C@H]32)[C@@H](C)[C@@H]1O", "measurement-kind": "clearance", "data-value": 27.1}

----------
# Tested on: Escherichia coli
# assay-notes: Antibacterial activity against Escherichia coli assessed as bacterial growth inhibition incubated for 24 hrs
# Type: functional

{"structure-notation": "C=C[C@]1(C)C[C@@H](OC(=O)CO)[C@]2(C)[C@H](C)CC[C@]3(CCC(=O)[C@H]32)[C@@H](C)[C@@H]1O", "MIC": "10 µg/mL"}
{"structure-notation": "C=C[C@]1(C)C[C@@H](O)[C@]2(C)[C@H](C)CC[C@]3(C/C(=C\\c4ccc(C(=O)NC5CCCCC5)cc4)C(=O)[C@H]32)[C@@H](C)[C@@H]1O", "MIC": "> 1000 µg/mL"}
{"structure-notation": "C=C[C@]1(C)C[C@@H](O)[C@]2(C)[C@H](C)CC[C@]3(C/C(=C\\c4ccc(C(=O)O)cc4)C(=O)[C@H]32)[C@@H](C)[C@@H]1O", "MIC": "> 1000 µg/mL"}
{"structure-notation": "C=C[C@]1(C)C[C@@H](O)[C@]2(C)[C@H](C)CC[C@]3(C/C(=C\\c4ccc(C(=O)N5CCN(C)CC5)cc4)C(=O)[C@H]32)[C@@H](C)[C@@H]1O", "MIC": "> 1000 µg/mL"}
